Assay: Acute toxicity, peroral
Settings: mouse, in vivo, po, 752 mg/kg
metric.name: mortality (%)
Number in %, nothing else.

For CC1(C(N)=O)CCCCC1 , write its mortality. 50

---

Test: Acute toxicity, peroral
Conditions: mouse, in vivo, po; at 790 mg/kg, peroral, mice
metric.name: mortality
Give the figure together with its unit, number first.

Tell me its mortality given O=C(CBr)CC1(C(=O)O)CCCCC1 [Example 47] as the entry. 30%

---

Test: Sedative activity: Rotarod test
Assay type: in vivo, mice (male)
Details: mouse, in vivo, po
Description: This test is used for the purpose of assessing the ability of the animals to coordinate their movements. It uses a wooden cylinder which has a diameter of 4.8 cm and revolves at a speed of 4 revolutions/minute. The test is carried out on male mice weighing about 22 g. […] Using the regression straight line method, a 50% neurotoxic dose (NTD 50) is calculated, which thus expresses the average level of the first neuromuscular effects under the influence of the studied product.
metric.name: TD50 at 0.25 h (mg/kg)
Write down the numeric answer in mg/kg and omit the unit.

Tell me its TD50 at 0.25 h given NC(=O)C1(CCOc2ccccc2)CCCCC1 as the entry. 160

Answer with the recorded TD50 at 0.25 h of O=C(O)C1(CC#CBr)CCCCC1 only. 245

Indicate the recorded TD50 at 0.25 h value for this compound: NC(=O)C1(Cc2ccccc2)CCCCC1 125

Please give measured TD50 at 0.25 h of the following entry: C=C(Cl)CC1(C(N)=O)CCCCC1 125

Using known records, supply TD50 at 0.25 h for CC1(C(N)=O)CCCCC1 425

Specify TD50 at 0.25 h for C=CCC1(C(N)=O)CCCCC1 and stop. 75

Give the value of TD50 at 0.25 h reported for the following: COCC1(C(N)=O)CCCCC1 300

Give recorded TD50 at 0.25 h. CC(C)C1(C(N)=O)CCCCC1 35

---

Experiment: Acute toxicity, peroral
Details: mouse, in vivo, po; at 1882 mg/kg, peroral, mice
metric.name: mortality
Please format your answer as a value with the unit trailing.

Please give measured mortality of the following entry: CC1(C(=O)[O-])CCCCC1.[Na+] 50%

---

Experiment: Acute toxicity, peroral
Details: mouse, in vivo, po; at 600 mg/kg, peroral, mice
metric.name: mortality

For the compound O=C([O-])C1(CC(Br)=CBr)CCCCC1.[Na+] , give its reported mortality. 0%

---

Assay: Acute toxicity, peroral
Conditions: mouse, in vivo, po; at 735 mg/kg, peroral, mice
metric.name: mortality (%)
Quick note: give the figure in %, leave out the unit.

For the compound O=C(O)C1(CC#CBr)CCCCC1 , give its reported mortality. 0

---

Test system: male mice
Assay: Sedative activity: Rotarod test
Type: in vivo
Conditions: at 600 mg/kg, peroral, mice
metric.name: Rotarod test, % of failures (%)
Quick note: give the figure in %, leave out the unit.

Give me measured Rotarod test, % of failures, please, for this compound: C=CCC1(C(=O)[O-])CCCCC1.[Na+] [Example 22, Sodium 1-allyl-1-cyclohexyl-carboxylate] 20

Item CC(=O)CC1(C(=O)[O-])CCCCC1.[Na+] [Example 46] : provide Rotarod test, % of failures 0

Find the measured Rotarod test, % of failures of COCC1(C(=O)O)CCCCC1 [Example 55] and report it. 0

Specify Rotarod test, % of failures for C=C(Cl)C1(C(=O)O)CCCCC1 [Example 18] and stop. 0

---

Kindly state mortality for each of the entries shown.
Experiment: Acute toxicity, peroral
Details: mouse, in vivo, po; at 500 mg/kg, peroral, mice
Hi! Could you send only the number? It should be in %, unit omitted.

Supply reported mortality belonging to this compound: C#CCC1(C(N)=O)CCCCC1 20

Answer with the recorded mortality for the compound listed here: NC(=O)C1(CBr)CCCCC1 0

---

For each record, write down the corresponding TD50 at 0.25 h.
Experiment: Sedative activity: Rotarod test
Format: in vivo, mice (male)
Conditions: mouse, in vivo, po; peroral, 15 minutes after administration, male mice; read-out: Sedative activity, Rotarod test, ED50
Method: This test is used for the purpose of assessing the ability of the animals to coordinate their movements. It uses a wooden cylinder which has a diameter of 4.8 cm and revolves at a speed of 4 revolutions/minute. The test is carried out on male mice weighing about 22 g. […] Using the regression straight line method, a 50% neurotoxic dose (NTD 50) is calculated, which thus expresses the average level of the first neuromuscular effects under the influence of the studied product.
Express the result in mg/kg but write the number alone.

Write down TD50 at 0.25 h measured for item C#CCC1(C(N)=O)CCCCC1 [Example 30] 125

Quick one: give measured TD50 at 0.25 h for O=C([O-])C1(CC(Br)=CBr)CCCCC1.[Na+] 280

Look up and state reported TD50 at 0.25 h for CC1(C(=O)[O-])CCCCC1.[Na+] 1020

Please look at this compound and report its TD50 at 0.25 h: O=C([O-])C1(Cc2ccccc2)CCCCC1.[Na+] 650

Write down TD50 at 0.25 h measured for item NC(=O)C1(CBr)CCCCC1 [Example 26] 125

---

For each record, write down the corresponding mortality.
Assay: Acute toxicity, peroral
Conditions: mouse, in vivo, po, 500 mg/kg
Answers without a unit are incomplete; give the number and then its unit.

# return recorded mortality for input COCC1(C(N)=O)CCCCC1 [Example 31] 0%

Report mortality for C=CCC1(C(N)=O)CCCCC1 [Example 27] 100%

Specify measured mortality for C=C(Cl)CC1(C(N)=O)CCCCC1 [Example 24] . 20%

Consider the compound CC(C)C1(C(N)=O)CCCCC1 [Example 29] . State its measured mortality. 100%

---

I'd appreciate it if you could supply ED50 values for the items below.
Test system: male OFl mice
Assay: Pentetrazole seizure (mortality after i.p. pentetrazole 125 mg/kg)
Type: in vivo
Conditions: Mus musculus, po, 0.25 h, read-out: Pentetrazole seizure, ED50
Note: unit mg/kg is implicit; provide only the numeric part.

Write ED50 of C#CCC1(C(=O)[O-])CCCCC1.[Na+] ; system used: male OFl mice 120

Look up and report measured ED50 (male OFl mice) for the following compound: CC(=O)CC1(C(=O)[O-])CCCCC1.[Na+] 300

Retrieve ED50 on male OFl mice; query NC(=O)C1(CBr)CCCCC1 75

# return ED50 for C=CC1(C(=O)[O-])CCCCC1.[Na+] [Example 37, Sodium 1-vinyl-1-cyclohexyl-carboxylate] , test system: male OFl mice 95

Identify measured ED50 obtained with male OFl mice for C=CCC1(C(=O)[O-])CCCCC1.[Na+] [Example 22, Sodium 1-allyl-1-cyclohexyl-carboxylate] . 154

Give ED50 only, for O=C([O-])C1(CC(Br)=CBr)CCCCC1.[Na+] , using male OFl mice data. 240

Write ED50 of C#CCC1(C(N)=O)CCCCC1 ; system used: male OFl mice 65

Provide ED50, recorded with male OFl mice, of CC1(C(=O)[O-])CCCCC1.[Na+] 317

Provide the reported ED50 (system: male OFl mice) for O=C([O-])C1(Cc2ccccc2)CCCCC1.[Na+] 116

Data provenance: patent US4283420A
